Reported Enzyme Activity Endpoint Assay: scIgG values for the following proteins.
molecular target: pooled human IgG
MEASURE_NAME: Enzyme Activity Endpoint Assay: scIgG (ng/µL)

>  <PROTEIN>
PRT-551 (protein) MANQEIRYSEETPSTITSVWTKGVTPPTDFIQNEDVLHAPYIANQGWYDITKTFNGKDDLLCGAATAGNMLHWWFDQNKEEIENYLKKHPEKQKINFNGEQMFDVKEAIDTKDSQTDSALFEYFKDKAFPYLSTKHLGVFPDHVIDMFINGYRLSLTNHGPTPVKRGTKDPRGGIFDAVFTRGDQSKLLTARHDFKEKTLNEISDLIKQELTEGKALGLSHTYANVRINHVINLWGADFNSEGNLEAIYVTDSDSNASIGMKKYYVGVNAAGKVAISAKEIEGDNIGAQVLGLFTLSTGQDIWNQTNLEHHHHHH

>  <SCALE_UNIT>
ng/µL

>  <ASSAY_RESULT>
0

$$$$
>  <PROTEIN>
PRT-13 (protein) MANQEIRYSEETPYHVTSVWTKGVTPPANFTQGEDVFHAPYKANQGWYDITKTFNGKDDLLCGAATAGNMLHWWFDQNKDQIEAYLKEHPEKQKINFNGEQMFDVKEAIDTKDDQTNSKLFEYFKEKAFPYLSTKHLGVFPDHVLDMFINGYRLSLTNHGPTPVKEGSKDPRGGIFDAVFTRGDQSKLLTSRHDFKEKTLKEISDLIKQELTEGKALALSHTYANVRINHVINLWGADFDSNGNLEAIYVTDSDSNASIGMKKYFVGVNSAGKVAISAKEIEDDNIGAQVLGLFTLSTGQDIWNQTN

>  <SCALE_UNIT>
ng/µL

>  <ASSAY_RESULT>
66

$$$$

FYI, the data here is from patent US20250027068.
